percent (share of sequence reads) listing for selected sequences.
# ASSAY SYSTEM: ENL YEATS domain (AviSUMO-ENL YEATS) (Homo sapiens)
# Construct: encoding ENL YEATS (aa 1−148) was cloned in pET28a-; made in house; host or cells: E. coli BL21(DE3pLysS), co-expressed with BirA (pBirAcm)
# Sequence (Q03111 1-148): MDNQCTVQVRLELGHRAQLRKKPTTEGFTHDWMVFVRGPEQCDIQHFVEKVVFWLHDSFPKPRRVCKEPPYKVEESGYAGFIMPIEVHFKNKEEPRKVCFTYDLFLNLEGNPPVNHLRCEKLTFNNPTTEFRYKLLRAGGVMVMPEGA
# ASSAY: Phage panning of BuK-containing 7-mer library against AviSUMO-ENL YEATS with Illumina NGS abundance
# CONDITION SET: sheet ENLR3: round 3 of panning against ENL YEATS; TAG = amber codon (BuK); 7-mer library positions V1-V7
PROPERTY MEASURED: percent (share of sequence reads) (%)

{"CONSTRUCT SEQUENCE": "IQTAGITAS", "READOUT NUMBER": 0.0009106}
{"CONSTRUCT SEQUENCE": "LWIIETAGG", "READOUT NUMBER": 0.02368}
{"CONSTRUCT SEQUENCE": "WQDTTAGTY", "READOUT NUMBER": 0.001821}
{"CONSTRUCT SEQUENCE": "WWIIETAGV", "READOUT NUMBER": 0.01457}
{"CONSTRUCT SEQUENCE": "WCIIETAGG", "READOUT NUMBER": 0.0173}
{"CONSTRUCT SEQUENCE": "WTVYCYTAG", "READOUT NUMBER": 0.002732}

---

# ASSAY SYSTEM: ENL YEATS domain (AviSUMO-ENL YEATS) (Homo sapiens)
# Construct: encoding ENL YEATS (aa 1−148) was cloned in pET28a-; made in house; host or cells: E. coli BL21(DE3pLysS), co-expressed with BirA (pBirAcm)
# Sequence (Q03111 1-148): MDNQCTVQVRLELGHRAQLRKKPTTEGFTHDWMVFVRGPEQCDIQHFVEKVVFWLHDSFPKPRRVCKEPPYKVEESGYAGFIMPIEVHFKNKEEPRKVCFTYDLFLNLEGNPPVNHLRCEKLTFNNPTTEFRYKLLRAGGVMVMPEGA
# ASSAY: Phage panning of BuK-containing 7-mer library against AviSUMO-ENL YEATS with Illumina NGS abundance
# CONDITION SET: sheet ENLR3: round 3 of panning against ENL YEATS; TAG = amber codon (BuK); 7-mer library positions V1-V7
PROPERTY MEASURED: n (number of NGS reads of the unique amino acid sequence)

{"SUBSTANCE": "WWIIEWG", "ASSAY SYSTEM": "ENL YEATS domain (AviSUMO-ENL YEATS) (Homo sapiens)", "READOUT NUMBER": 3}
{"SUBSTANCE": "YDVYCYY", "ASSAY SYSTEM": "ENL YEATS domain (AviSUMO-ENL YEATS) (Homo sapiens)", "READOUT NUMBER": 26}
{"SUBSTANCE": "YDVYCYTAG", "ASSAY SYSTEM": "ENL YEATS domain (AviSUMO-ENL YEATS) (Homo sapiens)", "READOUT NUMBER": 60611}
{"SUBSTANCE": "WWIIETAGD", "ASSAY SYSTEM": "ENL YEATS domain (AviSUMO-ENL YEATS) (Homo sapiens)", "READOUT NUMBER": 23}
{"SUBSTANCE": "YDVYCYW", "ASSAY SYSTEM": "ENL YEATS domain (AviSUMO-ENL YEATS) (Homo sapiens)", "READOUT NUMBER": 26}
{"SUBSTANCE": "MTAGGLRHS", "ASSAY SYSTEM": "ENL YEATS domain (AviSUMO-ENL YEATS) (Homo sapiens)", "READOUT NUMBER": 1}
{"SUBSTANCE": "WWIIVTAGG", "ASSAY SYSTEM": "ENL YEATS domain (AviSUMO-ENL YEATS) (Homo sapiens)", "READOUT NUMBER": 4}
{"SUBSTANCE": "SCPPRTAGD", "ASSAY SYSTEM": "ENL YEATS domain (AviSUMO-ENL YEATS) (Homo sapiens)", "READOUT NUMBER": 10}
{"SUBSTANCE": "HLNLFTAGG", "ASSAY SYSTEM": "ENL YEATS domain (AviSUMO-ENL YEATS) (Homo sapiens)", "READOUT NUMBER": 2}
{"SUBSTANCE": "KMPFTAGIS", "ASSAY SYSTEM": "ENL YEATS domain (AviSUMO-ENL YEATS) (Homo sapiens)", "READOUT NUMBER": 1}
{"SUBSTANCE": "YAIYCYTAG", "ASSAY SYSTEM": "ENL YEATS domain (AviSUMO-ENL YEATS) (Homo sapiens)", "READOUT NUMBER": 7}
{"SUBSTANCE": "LTAGTVLDP", "ASSAY SYSTEM": "ENL YEATS domain (AviSUMO-ENL YEATS) (Homo sapiens)", "READOUT NUMBER": 1}
{"SUBSTANCE": "CYDLCYG", "ASSAY SYSTEM": "ENL YEATS domain (AviSUMO-ENL YEATS) (Homo sapiens)", "READOUT NUMBER": 1}
{"SUBSTANCE": "WQDTTAGTY", "ASSAY SYSTEM": "ENL YEATS domain (AviSUMO-ENL YEATS) (Homo sapiens)", "READOUT NUMBER": 2}
{"SUBSTANCE": "ATAGSFHYL", "ASSAY SYSTEM": "ENL YEATS domain (AviSUMO-ENL YEATS) (Homo sapiens)", "READOUT NUMBER": 1}
{"SUBSTANCE": "HTRSMTAGN", "ASSAY SYSTEM": "ENL YEATS domain (AviSUMO-ENL YEATS) (Homo sapiens)", "READOUT NUMBER": 1}
{"SUBSTANCE": "NCPTAGFNL", "ASSAY SYSTEM": "ENL YEATS domain (AviSUMO-ENL YEATS) (Homo sapiens)", "READOUT NUMBER": 1}
{"SUBSTANCE": "YDIYCYTAG", "ASSAY SYSTEM": "ENL YEATS domain (AviSUMO-ENL YEATS) (Homo sapiens)", "READOUT NUMBER": 3}
{"SUBSTANCE": "CTYVITAGV", "ASSAY SYSTEM": "ENL YEATS domain (AviSUMO-ENL YEATS) (Homo sapiens)", "READOUT NUMBER": 1}
{"SUBSTANCE": "HLTLFTAGD", "ASSAY SYSTEM": "ENL YEATS domain (AviSUMO-ENL YEATS) (Homo sapiens)", "READOUT NUMBER": 4}
{"SUBSTANCE": "YGVYCYTAG", "ASSAY SYSTEM": "ENL YEATS domain (AviSUMO-ENL YEATS) (Homo sapiens)", "READOUT NUMBER": 13}
{"SUBSTANCE": "WLIIETAGG", "ASSAY SYSTEM": "ENL YEATS domain (AviSUMO-ENL YEATS) (Homo sapiens)", "READOUT NUMBER": 30}
{"SUBSTANCE": "IQTAGITAS", "ASSAY SYSTEM": "ENL YEATS domain (AviSUMO-ENL YEATS) (Homo sapiens)", "READOUT NUMBER": 1}
{"SUBSTANCE": "WFILYTAGD", "ASSAY SYSTEM": "ENL YEATS domain (AviSUMO-ENL YEATS) (Homo sapiens)", "READOUT NUMBER": 25}
{"SUBSTANCE": "YVGPWTAGG", "ASSAY SYSTEM": "ENL YEATS domain (AviSUMO-ENL YEATS) (Homo sapiens)", "READOUT NUMBER": 41}
{"SUBSTANCE": "YNVYCYTAG", "ASSAY SYSTEM": "ENL YEATS domain (AviSUMO-ENL YEATS) (Homo sapiens)", "READOUT NUMBER": 10}
{"SUBSTANCE": "CTAGGGSLF", "ASSAY SYSTEM": "ENL YEATS domain (AviSUMO-ENL YEATS) (Homo sapiens)", "READOUT NUMBER": 1}
{"SUBSTANCE": "VYCYTAGVW", "ASSAY SYSTEM": "ENL YEATS domain (AviSUMO-ENL YEATS) (Homo sapiens)", "READOUT NUMBER": 3}
{"SUBSTANCE": "YDVYFYTAG", "ASSAY SYSTEM": "ENL YEATS domain (AviSUMO-ENL YEATS) (Homo sapiens)", "READOUT NUMBER": 47}
{"SUBSTANCE": "YDVYCYQ", "ASSAY SYSTEM": "ENL YEATS domain (AviSUMO-ENL YEATS) (Homo sapiens)", "READOUT NUMBER": 15}
{"SUBSTANCE": "FDVYCYTAG", "ASSAY SYSTEM": "ENL YEATS domain (AviSUMO-ENL YEATS) (Homo sapiens)", "READOUT NUMBER": 2}
{"SUBSTANCE": "WCGPRTAGD", "ASSAY SYSTEM": "ENL YEATS domain (AviSUMO-ENL YEATS) (Homo sapiens)", "READOUT NUMBER": 2}
{"SUBSTANCE": "KVTAGGGGV", "ASSAY SYSTEM": "ENL YEATS domain (AviSUMO-ENL YEATS) (Homo sapiens)", "READOUT NUMBER": 1}
{"SUBSTANCE": "FLYTAGMPV", "ASSAY SYSTEM": "ENL YEATS domain (AviSUMO-ENL YEATS) (Homo sapiens)", "READOUT NUMBER": 1}
{"SUBSTANCE": "YVVYCYTAG", "ASSAY SYSTEM": "ENL YEATS domain (AviSUMO-ENL YEATS) (Homo sapiens)", "READOUT NUMBER": 4}
{"SUBSTANCE": "LLIIETAGG", "ASSAY SYSTEM": "ENL YEATS domain (AviSUMO-ENL YEATS) (Homo sapiens)", "READOUT NUMBER": 1}
{"SUBSTANCE": "FTAGIYTAA", "ASSAY SYSTEM": "ENL YEATS domain (AviSUMO-ENL YEATS) (Homo sapiens)", "READOUT NUMBER": 1}
